# targetOfAssay: Serine/threonine-protein kinase Nek1 (Homo sapiens)
# Sequence (whole entry): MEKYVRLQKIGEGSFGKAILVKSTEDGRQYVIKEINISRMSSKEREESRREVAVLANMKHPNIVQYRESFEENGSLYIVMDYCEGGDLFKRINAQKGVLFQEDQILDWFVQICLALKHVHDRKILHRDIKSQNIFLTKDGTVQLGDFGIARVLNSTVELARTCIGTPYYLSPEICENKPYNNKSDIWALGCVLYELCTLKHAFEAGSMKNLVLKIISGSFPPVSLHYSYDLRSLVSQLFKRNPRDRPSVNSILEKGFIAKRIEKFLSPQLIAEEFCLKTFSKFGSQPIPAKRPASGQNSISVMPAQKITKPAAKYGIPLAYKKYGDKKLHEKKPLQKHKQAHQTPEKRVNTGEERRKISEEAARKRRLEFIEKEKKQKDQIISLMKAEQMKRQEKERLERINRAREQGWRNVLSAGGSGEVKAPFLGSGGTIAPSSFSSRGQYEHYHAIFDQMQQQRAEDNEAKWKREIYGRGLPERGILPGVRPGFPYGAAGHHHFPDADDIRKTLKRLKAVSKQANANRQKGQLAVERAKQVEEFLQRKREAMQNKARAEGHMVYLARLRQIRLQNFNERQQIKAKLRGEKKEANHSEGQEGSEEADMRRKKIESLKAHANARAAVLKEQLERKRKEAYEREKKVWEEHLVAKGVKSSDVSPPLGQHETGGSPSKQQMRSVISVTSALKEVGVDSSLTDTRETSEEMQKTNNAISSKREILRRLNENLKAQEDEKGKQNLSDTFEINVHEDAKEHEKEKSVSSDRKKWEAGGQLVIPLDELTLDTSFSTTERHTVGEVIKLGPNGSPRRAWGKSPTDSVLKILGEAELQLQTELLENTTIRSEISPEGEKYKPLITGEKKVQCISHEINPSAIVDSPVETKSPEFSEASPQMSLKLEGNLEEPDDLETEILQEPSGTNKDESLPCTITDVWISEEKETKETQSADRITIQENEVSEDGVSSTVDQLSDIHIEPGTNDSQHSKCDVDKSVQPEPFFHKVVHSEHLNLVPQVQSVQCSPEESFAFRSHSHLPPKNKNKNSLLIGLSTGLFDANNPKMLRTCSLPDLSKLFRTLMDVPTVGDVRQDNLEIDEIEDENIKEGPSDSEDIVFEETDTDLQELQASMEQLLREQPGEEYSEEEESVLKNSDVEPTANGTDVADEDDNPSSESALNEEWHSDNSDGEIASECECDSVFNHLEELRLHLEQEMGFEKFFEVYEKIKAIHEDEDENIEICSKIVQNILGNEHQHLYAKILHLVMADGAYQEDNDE
# cond: at 1 µM
# Description: GSK_PKIS: NEK1 mean inhibition at 1 uM [Nanosyn]
This listing pairs compounds with measured inhibition.

# smilesStr, inhibition (%)
records = [
    ("CN(c1ccc(NC(=O)Nc2c(Cl)cccc2Cl)cc1)c1ccnc(Nc2cccc(CS(C)(=O)=O)c2)n1", 1.93),
    ("NS(=O)(=O)c1ccc(N/N=C2\\C(=O)Nc3ccc(C(=O)NCCCn4ccnc4)cc32)cc1", 4.83),
    ("Cc1nnc(-c2ccc(C)c(-c3ccc(C(=O)NCc4ccc(Cl)cc4)cc3)c2)o1", 4.54),
    ("NC(=O)c1cc(-c2ccc(F)cc2)cc(-c2ccncc2)c1N", 1.03),
    ("CCS(=O)(=O)c1ccc(OC)c(Nc2ncc(-c3cccc(-c4ccccc4F)c3)o2)c1", 1.67),
    ("Cc1ccc(C(=O)NC2CCC2)cc1-c1ccc(C(=O)NCC2CC2)cc1", 3.06),
    ("Fc1ccc(-c2nc3n(c2-c2ccncc2)CCS3)cc1", 2.98),
    ("CN(C)CCOc1ccc(-c2cc(-c3ccc4c(c3)CCC4=NO)c(-c3ccncc3)o2)cc1", 0.32),
    ("COC(=O)Nc1nc2ccc(Sc3ccc(NC(=O)Nc4cc(C(F)(F)F)ccc4F)cc3)cc2[nH]1", 1.18),
    ("c1ccc(-c2n[nH]cc2-c2ccnc(-c3ccc(OCCN4CCOCC4)cc3)c2)nc1", -2.23),
    ("CCc1cccc(CC)c1/C=C/c1cncc(C(=O)NC)c1", 1.92),
    ("COc1ccc(-c2ccc3c(NC(=O)C4CC4)n[nH]c3n2)cc1", 2.1),
    ("CCS(=O)(=O)c1ccc(OC)c(Nc2ncc(-c3ccccc3Cl)o2)c1", 4.41),
    ("FC(F)(F)c1cccc(Nc2nccc(-c3cnn4nc(-c5ccccc5)ccc34)n2)c1", 2.59),
    ("CCC(=O)Nc1ccc(C)c(-c2ccc(C(=O)NCC3CC3)cc2)c1", 2.64),
    ("Fc1ccc(-c2ncn(C3CCNCC3)c2-c2ccnc(Oc3ccc(F)c(F)c3)n2)cc1", 0.52),
    ("COc1cc2ncn(-c3cc(OCc4cccs4)c(C(N)=O)s3)c2cc1OC", 7.88),
    ("CNC(=O)c1cncc(/C=C/c2c(C)cccc2C)c1", 2.88),
    ("NS(=O)(=O)c1ccc(N/N=C2\\C(=O)Nc3ccc(-c4cnco4)cc32)cc1", -0.1),
    ("O=C(Nc1n[nH]c2cc(-c3ccccc3)ccc12)C1CC1", 3.2),
    ("COc1ccc2cc(-c3c(-c4ccncc4)nc(-c4ccc(S(C)(=O)=O)cc4C)n3C)ccc2c1", 4.4),
    ("NS(=O)(=O)c1ccc(Nc2cc(-c3ccc(O)c(F)c3)n[nH]2)cc1", -1.21),
    ("NC(=O)c1ccc(Oc2nccc(-c3c(-c4ccc(F)cc4)ncn3C3CCNCC3)n2)cc1", 5.01),
    ("COc1ccc(C2=C(N3CCc4ccccc43)C(=O)NC2=O)cc1", 5.54),
    ("NCc1ccc(-n2c(-c3nonc3N)nc3cnccc32)cc1", 3.48),
    ("COc1cccc(-n2cnc3c(N/N=C/c4ccncc4)ncnc32)c1", 9.07),
    ("CCN(CC)Cc1ccc(Nc2nccc(-c3cnn4ncccc34)n2)cc1", 4.48),
    ("COc1cc2ncn(-c3cc(OCc4ccccc4C(F)(F)F)c(C(C)=O)s3)c2cc1OC", 1.9),
    ("CN1CCN(CCCNc2nc3ccc(Oc4ccc(NC(=O)Nc5cc(C(F)(F)F)ccc5F)cc4)cc3[nH]2)CC1", 0.88),
    ("CCc1ccc(Oc2nccc(-c3c(-c4ccc(F)cc4)ncn3C3CCNCC3)n2)cc1", 1.69),
    ("N#Cc1ccc(Oc2nccc(-c3c(-c4ccc(F)cc4)ncn3C3CCNCC3)n2)cc1", 2.49),
    ("Fc1ccc(-c2c(-c3ccncc3)nc3n2CCS3)cc1", 3.2),
    ("O=C(Nc1n[nH]c2nc(-c3ccco3)ccc12)C1CC1", 1.36),
    ("COc1cc(Nc2ncc3c(C)nc(-c4cccc(Oc5ccccc5)c4)n3n2)cc(OC)c1OC", 11.3),
    ("COc1cc(N2CCN(C(C)C)CC2)ccc1Nc1nc(Nc2ccc(F)cc2C(=O)NC[C@@H](O)CO)c2cc[nH]c2n1", 4.63),
    ("CN(C)CCCNc1nccc(-c2c(-c3ccc(F)cc3)nn3cc(C(F)(F)F)ccc23)n1", 4.09),
    ("Cc1ccc(NC(=O)c2ccoc2)cc1-c1ccc(C(=O)NCC2CC2)cc1", 0.36),
    ("O=C(NCC1CC1)c1ccc(-c2cccc(C(=O)NC3CC3)c2)cc1", 2.92),
    ("COc1cccc(/C=N/Nc2ncnc3c2cnn3-c2cccc(OC)c2)c1", 3.93),
    ("C/C(Nc1ccc(S(N)(=O)=O)cc1)=C1/C(=O)Nc2ccccc21", 0.52),
]

----------
# targetOfAssay: NT-3 growth factor receptor (Homo sapiens) (UniProt Q16288);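 further: mean percent inhibition of TRKC, reported within the GSK PKIS dataset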
# Sequence (Q16288 32-839 limits assumed): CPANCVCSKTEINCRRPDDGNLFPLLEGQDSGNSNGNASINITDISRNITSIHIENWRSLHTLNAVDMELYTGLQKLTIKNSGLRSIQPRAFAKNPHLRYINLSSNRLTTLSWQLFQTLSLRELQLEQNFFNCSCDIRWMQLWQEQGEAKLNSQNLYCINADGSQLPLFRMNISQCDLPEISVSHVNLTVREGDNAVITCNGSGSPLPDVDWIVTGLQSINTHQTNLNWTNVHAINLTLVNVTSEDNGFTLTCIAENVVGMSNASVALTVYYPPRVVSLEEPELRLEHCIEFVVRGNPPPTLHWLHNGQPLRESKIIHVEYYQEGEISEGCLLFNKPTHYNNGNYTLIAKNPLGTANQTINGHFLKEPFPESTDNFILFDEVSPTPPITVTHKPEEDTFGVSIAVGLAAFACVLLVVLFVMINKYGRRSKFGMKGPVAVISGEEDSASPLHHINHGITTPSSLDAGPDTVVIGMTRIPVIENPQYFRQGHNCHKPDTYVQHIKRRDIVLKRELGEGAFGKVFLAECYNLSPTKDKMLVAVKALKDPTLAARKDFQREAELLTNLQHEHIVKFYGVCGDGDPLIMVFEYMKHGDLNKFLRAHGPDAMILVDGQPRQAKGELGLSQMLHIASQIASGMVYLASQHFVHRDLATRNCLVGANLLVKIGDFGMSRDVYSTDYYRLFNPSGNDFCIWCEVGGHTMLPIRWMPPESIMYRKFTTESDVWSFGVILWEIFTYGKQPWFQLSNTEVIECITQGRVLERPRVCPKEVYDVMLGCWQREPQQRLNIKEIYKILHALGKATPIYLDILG
# cond: at 0.1 µM
endpoint: inhibition (%)

# smilesStr, valueObserved
data = [
    ("NS(=O)(=O)c1ccc(N/N=C2\\C(=O)Nc3ccc(-c4cnco4)cc32)cc1", 13.3),
    ("COc1cc2ncn(-c3cc(OCc4cccs4)c(C(N)=O)s3)c2cc1OC", 6.48),
    ("NCc1ccc(-n2c(-c3nonc3N)nc3cnccc32)cc1", 3.14),
    ("FC(F)(F)c1cccc(Nc2nccc(-c3cnn4nc(-c5ccccc5)ccc34)n2)c1", -0.78),
    ("O=C(Nc1ccc(Oc2ccc3[nH]c(NC(=O)c4ccccc4)nc3c2)cc1)Nc1cc(C(F)(F)F)ccc1F", 8.01),
]

----------
# targetOfAssay: Fibroblast growth factor receptor 4 (Homo sapiens) (UniProt P22455);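 further: reported figure is the averaged percent inhibition of FGFR4, from the GSK PKIS kinase screening panel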
# Sequence (P22455 22-802 limits assumed): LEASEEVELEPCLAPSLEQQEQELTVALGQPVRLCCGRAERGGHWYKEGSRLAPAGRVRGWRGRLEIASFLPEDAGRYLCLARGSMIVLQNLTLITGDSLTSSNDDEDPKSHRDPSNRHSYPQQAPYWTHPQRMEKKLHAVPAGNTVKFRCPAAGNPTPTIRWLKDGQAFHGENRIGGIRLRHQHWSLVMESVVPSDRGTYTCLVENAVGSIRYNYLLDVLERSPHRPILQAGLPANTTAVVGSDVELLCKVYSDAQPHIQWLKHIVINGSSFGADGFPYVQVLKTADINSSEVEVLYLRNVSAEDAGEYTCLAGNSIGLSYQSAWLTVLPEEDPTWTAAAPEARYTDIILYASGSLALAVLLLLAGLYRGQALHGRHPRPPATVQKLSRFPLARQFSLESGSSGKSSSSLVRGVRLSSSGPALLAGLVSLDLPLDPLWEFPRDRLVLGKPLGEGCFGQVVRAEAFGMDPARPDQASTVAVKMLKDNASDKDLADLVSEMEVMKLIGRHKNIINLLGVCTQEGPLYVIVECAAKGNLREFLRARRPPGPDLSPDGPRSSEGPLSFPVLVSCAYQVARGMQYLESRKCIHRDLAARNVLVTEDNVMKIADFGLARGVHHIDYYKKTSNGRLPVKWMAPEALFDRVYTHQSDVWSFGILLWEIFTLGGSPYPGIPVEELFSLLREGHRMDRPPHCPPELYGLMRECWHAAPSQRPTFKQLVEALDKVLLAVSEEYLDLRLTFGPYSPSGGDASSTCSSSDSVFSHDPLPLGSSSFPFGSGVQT
# cond: at 1 µM
Some compounds, each annotated with its measured inhibition.

# smilesStr, displayUnit, inhibition
measured = [
    ("COc1cc(Nc2ncc(-c3ccccc3)o2)cc(OC)c1OC", "%", 1.36),
    ("COc1cc(N2CCN(C(C)C)CC2)ccc1Nc1nc(Nc2ccc(F)cc2C(=O)NC[C@@H](O)CO)c2cc[nH]c2n1", "%", -2.11),
    ("CCS(=O)(=O)c1ccc(OC)c(Nc2ncc(-c3cccc(-c4ccccc4F)c3)o2)c1", "%", 16.3),
    ("FC(F)(F)c1cccc(Nc2nccc(-c3cnn4nc(-c5ccccc5)ccc34)n2)c1", "%", 1.26),
    ("c1ccc(-c2n[nH]cc2-c2ccnc(-c3ccc(OCCN4CCOCC4)cc3)c2)nc1", "%", 4.93),
    ("CCN(CC)Cc1ccc(Nc2nccc(-c3cnn4ncccc34)n2)cc1", "%", -3.39),
    ("CN(c1ccc(NC(=O)Nc2c(Cl)cccc2Cl)cc1)c1ccnc(Nc2cccc(CS(C)(=O)=O)c2)n1", "%", 2.06),
    ("NS(=O)(=O)c1ccc(N/N=C2\\C(=O)Nc3ccc(C(=O)NCCCn4ccnc4)cc32)cc1", "%", 2.46),
    ("Fc1ccc(-c2nc3n(c2-c2ccncc2)CCS3)cc1", "%", -1.43),
    ("COc1cc(C)c(N(C)C(=O)CN(C)C)cc1Nc1nc(Nc2cccc(F)c2C(N)=O)c2cc[nH]c2n1", "%", -2.22),
    ("CS(=O)(=O)CCNCc1cc(-c2cc3c(Nc4ccc(OCc5cccc(F)c5)c(Cl)c4)ncnc3s2)cs1", "%", 1.36),
    ("CN(C)c1ccc2c(c1)/C(=C/Nc1ccc(S(N)(=O)=O)cc1)C(=O)N2", "%", 3.82),
    ("Cc1ccc(C(=O)NC(C)C)cc1-c1ccc(C(=O)NCC2CC2)cc1", "%", 0.47),
    ("CCS(=O)(=O)c1ccc(OC)c(Nc2ncc(-c3ccccc3Cl)o2)c1", "%", 4.03),
    ("COc1cccc(-n2cnc3c(N/N=C/c4ccncc4)ncnc32)c1", "%", -3.96),
    ("NCc1ccc(-n2c(-c3nonc3N)nc3cnccc32)cc1", "%", 0.49),
    ("Cc1ccc(C(=O)NC2CCC2)cc1-c1ccc(C(=O)NCC2CC2)cc1", "%", 1.12),
    ("CNC(=O)c1cncc(/C=C/c2c(C)cccc2C)c1", "%", -4.47),
    ("Fc1ccc(-c2ncn(C3CCNCC3)c2-c2ccnc(Oc3ccc(Oc4ccccc4)cc3)n2)cc1", "%", 3.31),
    ("NC(=O)Cc1ccccc1Oc1nccc(-c2c(-c3ccc(F)cc3)ncn2C2CCNCC2)n1", "%", 0.51),
    ("COC(=O)Nc1nc2ccc(Sc3ccc(NC(=O)Nc4cc(C(F)(F)F)ccc4F)cc3)cc2[nH]1", "%", -0.24),
    ("CCC(=O)Nc1ccc(C)c(-c2ccc(C(=O)NCC3CC3)cc2)c1", "%", 1),
    ("COc1ccc2ncn(-c3cc(O[C@H](C)c4ccccc4Cl)c(C(N)=O)s3)c2c1", "%", -2.23),
    ("NS(=O)(=O)c1ccc(Nc2cc(-c3ccc(O)c(F)c3)n[nH]2)cc1", "%", 0.53),
    ("Cc1ccc(NC(=O)c2ccoc2)cc1-c1ccc(C(=O)NCC2CC2)cc1", "%", 1.63),
    ("CCc1cccc(CC)c1/C=C/c1cncc(C(=O)NC)c1", "%", 0.35),
    ("C#Cc1cccc(Nc2ncnc3ccc(OCCCCNCCS(C)(=O)=O)cc23)c1", "%", -1.61),
    ("COc1cc2ncn(-c3cc(OCc4ccccc4C(F)(F)F)c(C(C)=O)s3)c2cc1OC", "%", 0.4),
    ("C/C(Nc1ccc(S(N)(=O)=O)cc1)=C1/C(=O)Nc2ccccc21", "%", 3.59),
    ("O=C(Nc1n[nH]c2nc(-c3ccco3)ccc12)C1CC1", "%", 2.6),
    ("C[C@@H](Oc1cc(-n2cnc3ccc(OC4CCN(C)CC4)cc32)sc1C(N)=O)c1ccccc1Cl", "%", -1.19),
    ("O=C(Nc1n[nH]c2cc(-c3cc(F)ccc3F)ccc12)C1CC1", "%", 0.78),
    ("NS(=O)(=O)c1ccc(N/N=C2\\C(=O)Nc3ccc(-c4cnco4)cc32)cc1", "%", -2.44),
    ("COc1cc(Nc2ncc3c(C)nc(-c4cccc(Oc5ccccc5)c4)n3n2)cc(OC)c1OC", "%", 1.97),
    ("CCc1ccc(Oc2nccc(-c3c(-c4ccc(F)cc4)ncn3C3CCNCC3)n2)cc1", "%", 1.42),
    ("CN1CCN(CCCNc2nc3ccc(Oc4ccc(NC(=O)Nc5cc(C(F)(F)F)ccc5F)cc4)cc3[nH]2)CC1", "%", -0.18),
    ("O=C(Nc1ccc(Oc2ccc3[nH]c(NC(=O)c4ccccc4)nc3c2)cc1)Nc1cc(C(F)(F)F)ccc1F", "%", 0.83),
    ("O=C(Nc1n[nH]c2nc(-c3ccc(O)cc3)c(Br)cc12)C1CC1", "%", 3.05),
    ("Clc1ccc(CNc2nccc(-c3cnn4ncccc34)n2)cc1", "%", 1.27),
]
